pIC50 by entry:
- Test target: 5-HT4 receptor (Cavia porcellus)
- Construct: striatum was isolated which was cryopreserved at −80° C. until use; from tissue; host or cells: guinea pig (Slc-Hartley) striatum membranes
- Test name: Test Example 3: Guinea pig 5-HT4 receptor binding assay, [3H]-GR113808, striatum membranes (Table 98)
- Particulars: Guinea pig 5-HT4 receptor binding assay, [3H]-GR113808, striatum membranes; mean value of each group; read-out: IC50
Answer as the number alone; pIC50 is minus log10 of concentration in mol/L.

CC(C)c1nn(-c2noc(C3CCN(C4CCN(C(=O)CO)CC4)CC3)n2)c2ccccc12 | 7.57

Pending compound:
Which pIC50 is reported for this compound? CC(C)c1nn(-c2noc(C3CCN(CC4CN(C(=O)N(C)C)CCO4)CC3)n2)c2c(F)cccc12 (centres unmarked)
7.67

====

- Test target: 5-HT4 receptor (Cavia porcellus, UniProt O70528)
- Construct: striatum was isolated which was cryopreserved at −80° C. until use; from tissue; host or cells: guinea pig (Slc-Hartley) striatum membranes
- Sequence (O70528 whole entry): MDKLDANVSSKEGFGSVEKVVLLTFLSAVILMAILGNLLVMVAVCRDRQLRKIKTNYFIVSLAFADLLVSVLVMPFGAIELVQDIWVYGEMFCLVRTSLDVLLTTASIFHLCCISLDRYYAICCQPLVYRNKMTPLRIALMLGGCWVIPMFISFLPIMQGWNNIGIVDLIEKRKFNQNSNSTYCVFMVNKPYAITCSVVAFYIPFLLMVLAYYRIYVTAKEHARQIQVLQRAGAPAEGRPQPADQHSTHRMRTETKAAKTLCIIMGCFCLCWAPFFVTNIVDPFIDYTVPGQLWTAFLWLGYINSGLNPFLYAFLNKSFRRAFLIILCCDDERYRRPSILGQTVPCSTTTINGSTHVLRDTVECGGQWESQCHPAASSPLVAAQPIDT
- Test name: Test Example 3: Guinea pig 5-HT4 receptor binding assay, [3H]-GR113808, striatum membranes (Table 98)
- Particulars: Guinea pig 5-HT4 receptor binding assay, [3H]-GR113808, striatum membranes; mean value of each group; read-out: IC50
Counter-ions that a name gives are not always drawn.
IC50 by entry:

Below: 2 molecules and their reported IC50.
CCc1nn(-c2noc(C3CCN(C4CCN(C(=O)COC)CC4)CC3)n2)c2c(F)c(F)ccc12 [Example 461, trifluoroacetate] | < 20 nM
CCc1nn(-c2noc(C3CCN(C[C@H]4CCN(C(C)=O)C4)CC3)n2)c2c(F)cccc12 [Example 209, hydrochloride] | < 20 nM

Pending molecule:
Which IC50 is reported for this molecule? CC(C)c1nn(-c2noc(C3CCN(C4CCOCC4)CC3)n2)c2c(F)c(F)ccc12 [Example 454, trifluoroacetate]
< 20 nM
